- Target desc: hPolεCD (DNA polymerase ε catalytic domain, exo-) (Homo sapiens, UniProt Q07864 27-1172, D275N;E277Q;del185-209)
- Sequence (Q07864 other isoform, or with tags, fused parts or gaps D275N;E277Q;del185-209): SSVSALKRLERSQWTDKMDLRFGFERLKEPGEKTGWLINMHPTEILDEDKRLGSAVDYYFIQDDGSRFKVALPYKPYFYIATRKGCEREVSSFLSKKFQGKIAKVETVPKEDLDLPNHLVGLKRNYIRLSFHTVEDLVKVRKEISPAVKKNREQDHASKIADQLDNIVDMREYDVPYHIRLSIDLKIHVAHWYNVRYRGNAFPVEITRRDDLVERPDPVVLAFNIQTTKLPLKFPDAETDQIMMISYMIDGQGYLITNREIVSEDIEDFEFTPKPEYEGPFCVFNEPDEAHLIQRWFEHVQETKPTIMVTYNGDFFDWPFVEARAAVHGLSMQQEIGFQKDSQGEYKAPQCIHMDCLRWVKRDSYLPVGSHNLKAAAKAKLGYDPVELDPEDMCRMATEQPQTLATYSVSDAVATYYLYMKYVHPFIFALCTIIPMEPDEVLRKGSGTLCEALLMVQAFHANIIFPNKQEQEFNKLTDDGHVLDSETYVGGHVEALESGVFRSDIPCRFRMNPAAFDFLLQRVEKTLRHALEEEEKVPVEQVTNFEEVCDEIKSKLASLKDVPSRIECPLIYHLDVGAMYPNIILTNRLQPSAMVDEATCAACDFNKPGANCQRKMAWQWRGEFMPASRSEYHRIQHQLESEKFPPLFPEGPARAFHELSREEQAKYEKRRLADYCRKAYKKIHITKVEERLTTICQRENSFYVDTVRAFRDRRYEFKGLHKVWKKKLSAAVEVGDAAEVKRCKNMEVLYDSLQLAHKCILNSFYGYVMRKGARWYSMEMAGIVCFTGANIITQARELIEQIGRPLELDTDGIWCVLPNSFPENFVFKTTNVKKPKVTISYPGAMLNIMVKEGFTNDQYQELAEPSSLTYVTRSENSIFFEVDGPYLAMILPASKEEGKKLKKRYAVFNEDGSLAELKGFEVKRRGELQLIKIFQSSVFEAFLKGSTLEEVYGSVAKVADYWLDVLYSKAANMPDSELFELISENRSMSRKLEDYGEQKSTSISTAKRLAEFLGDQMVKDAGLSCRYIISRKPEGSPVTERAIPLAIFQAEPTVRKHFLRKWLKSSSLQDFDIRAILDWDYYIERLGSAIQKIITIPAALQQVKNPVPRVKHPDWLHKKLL
- Test summary: BLI; 150 mM NaCl, no dTTP/Mg2+; BLI (Octet K2): 30 mM Tris-Hepes pH 7.8, 100-150 mM NaCl, 2 mM TCEP, 0.002% Tween 20, 23 °C; EMSA: 20 mM Tris-Hepes pH 7.8, 100 mM NaCl, 2% glycerol, 2 mM TCEP, 0.2 mg/mL BSA, room temperature
- Experimental conditions: protein: recombinant; tags: none in final protein (N-terminal His6-Sumo cleaved); label: 5' BiotinTEG on template; template 5' overhang 9 nt and 3' overhang 3 nt
Measured property: pKd
Scale: pKd equals -log10([C]), with [C] in mol/L.

Ask: Tell me measured pKd for D11 template:primer (dsDNA, primer 3'-terminal 2',3'-dideoxy-C) DNA 1: AATACATAAGCGCTCCAGGCAAT DNA 2: GCCTGGAGCGC please.
Result: 5.82
